Listing of recorded Kd by entry.
study_target: T1, Rb^P E693A (human, UniProt P06400 380-788, E693A)
T1 construct: also called variant 60
T1 sequence (looked up): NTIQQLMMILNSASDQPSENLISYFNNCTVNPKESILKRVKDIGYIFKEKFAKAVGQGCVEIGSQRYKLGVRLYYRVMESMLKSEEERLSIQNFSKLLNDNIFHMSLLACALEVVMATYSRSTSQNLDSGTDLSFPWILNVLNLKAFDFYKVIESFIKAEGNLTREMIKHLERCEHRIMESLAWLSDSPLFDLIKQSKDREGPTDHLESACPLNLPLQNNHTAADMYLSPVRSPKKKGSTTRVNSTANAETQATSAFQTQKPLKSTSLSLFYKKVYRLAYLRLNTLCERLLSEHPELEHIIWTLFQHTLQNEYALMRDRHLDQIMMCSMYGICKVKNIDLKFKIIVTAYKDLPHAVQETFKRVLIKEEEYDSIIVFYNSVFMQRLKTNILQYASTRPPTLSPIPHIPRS
measurement_protocol: fluorescence polarisation; 25 °C; unlabeled Rb^P titrated against 1.5 nM TMR-E2F1^TD or 7.5 nM TMR-E7^LxCxE; 25 mM Tris pH 8.0, 200 mM NaCl, 1 mM DTT, 0.1% Tween-20; 2 min incubation; quadratic fit; apparent Kd for the variants, Kd for WT
details: both partners purified
No end group written: not given here. TMR = tetramethyl rhodamine dye

binder | unit_annotation | Kd
{TMR}-GEGIRDLFDCDFGDLTPLD (also called E2F^TD; source: synthetic peptide, bought: GenScript) [TMR-E2F1^TD, peptide of the E2F1 transactivation domain] | nM | 42
DLYCYEQLN (also: TMR label, position not given here, source: synthetic peptide, bought: GenScript) [TMR-E7^LxCxE, LxCxE peptide of the E7 oncoprotein from HPV] | nM | 7
